Attribution: paper PMC10620772

- System: COLO 205
- method.description: NCI60 antitumor screening
- Type: cell-based, human
- conditions.used: Homo sapiens, COLO 205
IC50: recorded values

smiles.string | tgt | unit.info | IC50
N#Cc1c(-c2ccc(F)cc2)nc(SCc2ccccc2)nc1N1CCNCC1 | COLO 205 | nM | 1660
N#Cc1c(-c2ccc(F)cc2)nc(SCc2ccc(F)cc2)nc1N1CCNCC1 | COLO 205 | nM | 1830

* * *

- method.description: in vitro
- conditions.used: human
selectivity ratio: recorded values

smiles.string | selectivity ratio
N#Cc1c(-c2ccc(F)cc2)nc(SCc2ccc(F)cc2)nc1N1CCNCC1 | 25.3
N#Cc1c(-c2ccc(F)cc2)nc(SCc2ccccc2)nc1N1CCNCC1 | 17

* * *

- System: DU-145
- method.description: NCI60 antitumor screening
- Type: cell-based, human
- conditions.used: Homo sapiens, DU-145; read-out: growth inhibition percent (GI%)

smiles.string | inhibition at 10 µM
N#Cc1c(-c2ccc(F)cc2)nc(SCc2ccc(F)cc2)nc1N1CCN(c2ccccc2)CC1 | < 10%
N#Cc1c(-c2ccc(F)cc2)nc(SCc2ccccc2)nc1N1CCN(c2ccccc2)CC1 | < 10%
CN1CCN(c2nc(SCc3ccc([N+](=O)[O-])cc3)nc(-c3ccc(F)cc3)c2C#N)CC1 | < 10%
N#Cc1c(-c2ccc(F)cc2)nc(SCc2ccc([N+](=O)[O-])cc2)nc1N1CCN(c2ccccc2)CC1 | < 10%
N#Cc1c(-c2ccc(F)cc2)nc(SCc2ccccc2)nc1N1CCNCC1 | > 100%
CN1CCN(c2nc(SCc3ccc(F)cc3)nc(-c3ccc(F)cc3)c2C#N)CC1 | < 10%
Cc1ccc(CSc2nc(-c3ccc(F)cc3)c(C#N)c(N3CCNCC3)n2)cc1 | < 10%
N#Cc1c(-c2ccc(F)cc2)nc(SCc2ccc(F)cc2)nc1N1CCNCC1 | > 100%
CN1CCN(c2nc(SCc3ccccc3)nc(-c3ccc(F)cc3)c2C#N)CC1 | < 10%
N#Cc1c(-c2ccc(F)cc2)nc(SCc2ccc([N+](=O)[O-])cc2)nc1N1CCNCC1 | < 10%
Cc1ccc(CSc2nc(-c3ccc(F)cc3)c(C#N)c(N3CCN(c4ccccc4)CC3)n2)cc1 | < 10%
Cc1ccc(CSc2nc(-c3ccc(F)cc3)c(C#N)c(N3CCN(C)CC3)n2)cc1 | < 10%

* * *

- Test system: DU-145
- method.description: NCI60 antitumor screening
- Format: cell-based, human
- conditions.used: 10 μM one-dose

smiles.string | GI%
Cc1ccc(CSc2nc(Cl)c(C#N)c(-c3ccc(F)cc3)n2)cc1 | 18.41%
N#Cc1c(Cl)nc(SCc2ccc([N+](=O)[O-])cc2)nc1-c1ccc(F)cc1 | 24.93%
N#Cc1c(Cl)nc(SCc2ccccc2)nc1-c1ccc(F)cc1 | — (GI% < 10)
N#Cc1c(-c2ccc(F)cc2)nc(SCc2ccccc2)nc1N1CCOCC1 | — (GI% < 10)
N#Cc1c(-c2ccc(F)cc2)nc(SCc2ccc([N+](=O)[O-])cc2)nc1N1CCOCC1 | 26.65%
Cc1ccc(CSc2nc(-c3ccc(F)cc3)c(C#N)c(N3CCOCC3)n2)cc1 | — (GI% < 10)
N#Cc1c(-c2ccc(F)cc2)nc(SCc2ccc(F)cc2)[nH]c1=O | — (GI% < 10)
N#Cc1c(-c2ccc(F)cc2)nc(SCc2ccc([N+](=O)[O-])cc2)[nH]c1=O | — (GI% < 10)
Cc1ccc(CSc2nc(-c3ccc(F)cc3)c(C#N)c(=O)[nH]2)cc1 | — (GI% < 10)
N#Cc1c(-c2ccc(F)cc2)nc(SCc2ccc(F)cc2)nc1N1CCOCC1 | 22.16%
N#Cc1c(Cl)nc(SCc2ccc(F)cc2)nc1-c1ccc(F)cc1 | — (GI% < 10)

* * *

- Test system: U251
- method.description: NCI60 antitumor screening
- Assay type: cell-based, human
- conditions.used: 10 μM one-dose

smiles.string | tgt | GI%
N#Cc1c(-c2ccc(F)cc2)nc(SCc2ccc([N+](=O)[O-])cc2)nc1N1CCOCC1 | U251 | 44.68%
Cc1ccc(CSc2nc(-c3ccc(F)cc3)c(C#N)c(=O)[nH]2)cc1 | U251 | — (GI% < 10)
N#Cc1c(-c2ccc(F)cc2)nc(SCc2ccc(F)cc2)[nH]c1=O | U251 | 33.40%
N#Cc1c(-c2ccc(F)cc2)nc(SCc2ccc(F)cc2)nc1N1CCOCC1 | U251 | 52.85%
N#Cc1c(-c2ccc(F)cc2)nc(SCc2ccc([N+](=O)[O-])cc2)[nH]c1=O | U251 | 13.78%
N#Cc1c(Cl)nc(SCc2ccc([N+](=O)[O-])cc2)nc1-c1ccc(F)cc1 | U251 | 31.17%
N#Cc1c(Cl)nc(SCc2ccccc2)nc1-c1ccc(F)cc1 | U251 | 39.15%
Cc1ccc(CSc2nc(-c3ccc(F)cc3)c(C#N)c(N3CCOCC3)n2)cc1 | U251 | 13.13%
Cc1ccc(CSc2nc(Cl)c(C#N)c(-c3ccc(F)cc3)n2)cc1 | U251 | 15.75%
N#Cc1c(-c2ccc(F)cc2)nc(SCc2ccccc2)nc1N1CCOCC1 | U251 | — (GI% < 10)
N#Cc1c(Cl)nc(SCc2ccc(F)cc2)nc1-c1ccc(F)cc1 | U251 | — (GI% < 10)

* * *

- Tested on: NCI60 cell lines panel
- method.description: NCI60 antitumor screening, full panel
- Format: cell-based, human
- conditions.used: 10 μM one-dose, mean over NCI60
readout.kind: Mean GI% (%)

compound | recorded.number
N#Cc1c(Cl)nc(SCc2ccc([N+](=O)[O-])cc2)nc1-c1ccc(F)cc1 [3c] | 23.91
Cc1ccc(CSc2nc(-c3ccc(F)cc3)c(C#N)c(N3CCOCC3)n2)cc1 [4d] | 14.01
N#Cc1c(-c2ccc(F)cc2)nc(SCc2ccc(F)cc2)[nH]c1=O [2b] | 16.01
N#Cc1c(-c2ccc(F)cc2)nc(SCc2ccc(F)cc2)nc1N1CCOCC1 [4b] | 34.42
Cc1ccc(CSc2nc(Cl)c(C#N)c(-c3ccc(F)cc3)n2)cc1 [3d] | 12.62
N#Cc1c(-c2ccc(F)cc2)nc(SCc2ccc([N+](=O)[O-])cc2)nc1N1CCOCC1 [4c] | 39.54

* * *

- Test system: MDA-MB-468
- method.description: NCI60 antitumor screening
- Type: cell-based, human
- conditions.used: 10 μM one-dose
readout.kind: GI%

molecule | result
N#Cc1c(-c2ccc(F)cc2)nc(SCc2ccc([N+](=O)[O-])cc2)[nH]c1=O [2c] | — (GI% < 10)
N#Cc1c(Cl)nc(SCc2ccc(F)cc2)nc1-c1ccc(F)cc1 [3b] | — (GI% < 10)
Cc1ccc(CSc2nc(-c3ccc(F)cc3)c(C#N)c(N3CCOCC3)n2)cc1 [4d] | — (GI% < 10)
Cc1ccc(CSc2nc(Cl)c(C#N)c(-c3ccc(F)cc3)n2)cc1 [3d] | — (GI% < 10)
N#Cc1c(-c2ccc(F)cc2)nc(SCc2ccccc2)nc1N1CCOCC1 [4a] | — (GI% < 10)
N#Cc1c(-c2ccc(F)cc2)nc(SCc2ccc([N+](=O)[O-])cc2)nc1N1CCOCC1 [4c] | 49.44%
N#Cc1c(-c2ccc(F)cc2)nc(SCc2ccc(F)cc2)[nH]c1=O [2b] | 14.26%
N#Cc1c(Cl)nc(SCc2ccc([N+](=O)[O-])cc2)nc1-c1ccc(F)cc1 [3c] | 19.68%
N#Cc1c(Cl)nc(SCc2ccccc2)nc1-c1ccc(F)cc1 [3a] | — (GI% < 10)
Cc1ccc(CSc2nc(-c3ccc(F)cc3)c(C#N)c(=O)[nH]2)cc1 [2d] | — (GI% < 10)
N#Cc1c(-c2ccc(F)cc2)nc(SCc2ccc(F)cc2)nc1N1CCOCC1 [4b] | 37.89%

* * *

- Test system: SN12C
- method.description: NCI60 antitumor screening
- Type: cell-based, human
- conditions.used: Homo sapiens; 10 μM single dose; SN12C (renal cancer); read-out: growth inhibition percent (GI%)

smiles.string | unit.info | relation.sign | inhibition at 10 µM
CN1CCN(c2nc(SCc3ccc([N+](=O)[O-])cc3)nc(-c3ccc(F)cc3)c2C#N)CC1 | % | = | 15.8
N#Cc1c(-c2ccc(F)cc2)nc(SCc2ccc([N+](=O)[O-])cc2)nc1N1CCN(c2ccccc2)CC1 | % | < | 10
CN1CCN(c2nc(SCc3ccc(F)cc3)nc(-c3ccc(F)cc3)c2C#N)CC1 | % | = | 20.5

* * *

- System: HS 578T
- method.description: NCI60 antitumor screening
- Type: cell-based, human
- conditions.used: 10 μM one-dose
GI%: recorded values
readout.kind: GI% (%)

smiles.string | tgt | readout.kind | unit.info | recorded.number
N#Cc1c(-c2ccc(F)cc2)nc(SCc2ccccc2)nc1N1CCOCC1 | HS 578T | GI% | % | 19.87
N#Cc1c(Cl)nc(SCc2ccccc2)nc1-c1ccc(F)cc1 | HS 578T | GI% | % | 16.76
Cc1ccc(CSc2nc(-c3ccc(F)cc3)c(C#N)c(N3CCOCC3)n2)cc1 | HS 578T | GI% | % | 48.85
N#Cc1c(Cl)nc(SCc2ccc([N+](=O)[O-])cc2)nc1-c1ccc(F)cc1 | HS 578T | GI% | % | 13.31
N#Cc1c(-c2ccc(F)cc2)nc(SCc2ccc(F)cc2)[nH]c1=O | HS 578T | GI% | % | 24.34
